Tested on: Microscilla HPPD (SEQ ID NO: 20)
ASSAY OVERVIEW: In vitro HPPD activity assay, tolerance index
Type: biochemical, Microscilla marina
APPLIED CONDITIONS: normalized on Arabidopsis wild-type HPPD
Here, each record is paired with measured TI (normalized tolerance index) data.
ASSAY METRIC: TI (normalized tolerance index)

[[record]]
compound = "CN(c1c(Cl)ccc(C2=C(O)c3ncccc3C(C)(C)S2(=O)=O)c1Cl)S(C)(=O)=O [Inhibitor 4]"
assay_metric = "TI (normalized tolerance index)"
measured = 112.0

[[record]]
compound = "COCCOCc1nc(C(F)(F)F)ccc1C(=O)C1=C(O)C2CCC(C2)C1=O (centres unmarked) [Inhibitor 3]"
assay_metric = "TI (normalized tolerance index)"
measured = 6.7

[[record]]
compound = "CC1=NOC(c2c(Cl)ccc(C3=C(O)c4ncccc4C(C)(C)S3(=O)=O)c2Cl)C1 (centres unmarked) [Inhibitor 7]"
assay_metric = "TI (normalized tolerance index)"
measured = 337.7

[[record]]
compound = "CS(=O)(=O)c1ccc(C(=O)C2C(=O)CCCC2=O)c([N+](=O)[O-])c1 [Inhibitor 2]"
assay_metric = "TI (normalized tolerance index)"
measured = 0.2

[[record]]
compound = "CCS(=O)(=O)c1cc(C(F)(F)F)ccc1C1=C(O)c2ncccc2C(C)(C)S1(=O)=O [Inhibitor 5]"
assay_metric = "TI (normalized tolerance index)"
measured = 17.7

[[record]]
compound = "CC1(C)c2cccnc2C(O)=C(c2ccc(Cl)nc2Cl)S1(=O)=O [Inhibitor 8]"
assay_metric = "TI (normalized tolerance index)"
measured = 65.9

[[record]]
compound = "Cc1c(C(=O)c2cnn(C)c2O)ccc(S(C)(=O)=O)c1C1=NOCC1 [Inhibitor 1]"
assay_metric = "TI (normalized tolerance index)"
measured = 9.1

[[record]]
compound = "Cc1nonc1NC(=O)c1ccc(S(C)(=O)=O)c(S(C)(=O)=O)c1C [Inhibitor 10]"
assay_metric = "TI (normalized tolerance index)"
measured = 8.3

[[record]]
compound = "CC1(C)c2cccnc2C(O)=C(c2c(F)ccc(Cl)c2Br)S1(=O)=O [Inhibitor 9]"
assay_metric = "TI (normalized tolerance index)"
measured = 22.8

[[record]]
compound = "CSc1c(Cl)cc(F)c(C(=O)Nc2nnnn2C)c1Cl [Inhibitor 11]"
assay_metric = "TI (normalized tolerance index)"
measured = 0.1

[[record]]
compound = "CC(=O)N(C)c1c(Cl)ccc(C2=C(O)c3ncccc3C(C)(C)S2(=O)=O)c1Cl [Inhibitor 6]"
assay_metric = "TI (normalized tolerance index)"
measured = 14.7

